Target Under Test: T1, cynomolgus CTGF (cynomolgus, UniProt I7G525 27-349)
T1 construct: also called cyCTGF
T1 sequence: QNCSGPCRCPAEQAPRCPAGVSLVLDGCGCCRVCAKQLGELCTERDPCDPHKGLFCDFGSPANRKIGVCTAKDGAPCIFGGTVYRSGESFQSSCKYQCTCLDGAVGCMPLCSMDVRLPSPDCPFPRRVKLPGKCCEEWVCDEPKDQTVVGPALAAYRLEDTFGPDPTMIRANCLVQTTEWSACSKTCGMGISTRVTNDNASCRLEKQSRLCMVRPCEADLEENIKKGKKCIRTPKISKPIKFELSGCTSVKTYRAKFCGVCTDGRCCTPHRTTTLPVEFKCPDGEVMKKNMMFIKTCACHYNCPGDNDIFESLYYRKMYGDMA
Protocol Text: SPR (Biacore)
Protocol: The binding of exemplary lipocalin muteins to human (Creative Biomart), cynomolgus, rat (R&D Systems) and mouse CTGF (Abbexa) was determined by SPR using a Biacore instrument (Cytiva, formerly GE Healthcare). Some targets were fused to a human IgG1 Fc tag, and captured via the anti-human IgG antibody kit, others were directly immobilized. For some measurements, human CTGF with a human IgG1 Fc Tag or rat or murine CTGF without a tag were directly immobilized to a CM5 Chip. […]
Documented koff across a set of binders
Readout Type: koff (s⁻¹)

>>> recorded_value("lipocalin mutein of SEQ ID NO: 31 (designed binder, also called hNGAL mutein; not shown: C-terminal His-tag) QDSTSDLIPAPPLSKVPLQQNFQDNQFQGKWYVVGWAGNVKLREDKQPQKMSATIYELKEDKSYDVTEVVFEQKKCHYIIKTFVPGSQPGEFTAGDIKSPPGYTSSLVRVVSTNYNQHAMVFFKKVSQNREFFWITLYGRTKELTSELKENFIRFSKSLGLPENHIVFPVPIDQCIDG")
"7.31e-05"
>>> recorded_value("lipocalin mutein of SEQ ID NO: 36 (designed binder, also called hNGAL mutein) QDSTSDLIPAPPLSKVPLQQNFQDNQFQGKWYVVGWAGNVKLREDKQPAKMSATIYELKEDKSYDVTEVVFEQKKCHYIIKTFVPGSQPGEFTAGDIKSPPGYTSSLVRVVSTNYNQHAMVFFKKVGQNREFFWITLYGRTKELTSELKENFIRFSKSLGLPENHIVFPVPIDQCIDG")
"9.77e-05"
>>> recorded_value("lipocalin mutein of SEQ ID NO: 34 (designed binder, also called hNGAL mutein) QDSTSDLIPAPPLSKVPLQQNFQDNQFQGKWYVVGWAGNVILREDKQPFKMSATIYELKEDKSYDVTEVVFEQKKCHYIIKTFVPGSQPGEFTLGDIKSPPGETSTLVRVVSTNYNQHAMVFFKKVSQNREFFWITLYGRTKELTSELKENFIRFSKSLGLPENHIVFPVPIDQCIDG")
0.000238
>>> recorded_value("lipocalin mutein of SEQ ID NO: 24 (designed binder, also called hNGAL mutein) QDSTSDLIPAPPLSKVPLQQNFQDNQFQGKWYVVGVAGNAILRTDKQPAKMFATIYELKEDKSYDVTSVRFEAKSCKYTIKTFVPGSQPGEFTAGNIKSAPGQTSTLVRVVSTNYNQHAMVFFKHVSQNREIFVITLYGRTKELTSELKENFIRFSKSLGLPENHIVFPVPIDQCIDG")
"2.63e-05"
>>> recorded_value("lipocalin mutein of SEQ ID NO: 15 (designed binder, also called hNGAL mutein; not shown: C-terminal His-tag) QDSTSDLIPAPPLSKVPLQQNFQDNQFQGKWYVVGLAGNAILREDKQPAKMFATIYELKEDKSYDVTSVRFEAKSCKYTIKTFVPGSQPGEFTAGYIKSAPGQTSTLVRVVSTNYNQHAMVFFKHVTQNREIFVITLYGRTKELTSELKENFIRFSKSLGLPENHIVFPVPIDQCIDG")
"7.57e-05"
